Numbers sourced from PubChem BioAssay AID2060512.

System: 186277-243-T-J2-PDC complex spheroid viability;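 also: spheroids exposed to drugs for 7 days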
Experiment: Anticancer human tumor 186277-243-T-J2-PDC patient-derived colon adenocarcinoma cell line growth inhibition [GQUAD]
Conditions: second compound 0.1 µM; first compound 0.1 µM; hits give low values
Description: DNA G-quadruplex Stabilizer Agents in Combinations in Complex Spheroids A high-throughput screen of multi-cell type tumor spheroids was designed to identify active combinations of DNA G-quadruplex stabilizer agents and targeted small molecules. […] Compounds. […] If the clinical Cmax for an agent had not been determined, the highest concentration tested was 10 microM. […]
Hi! Could you tag entries with viability, T/C below 90% as YES, and those at or above as NO? Much appreciated.

Report whether reported viability, T/C is lower than 90% (strictly) for Cc1cccc(N(C)C(=O)C2C(O)CCN2c2nc(C)cc(C(F)(F)F)c2C#N)c1 (stereo unspecified) + CN(C)c1ccc(Nc2c3ccc(NC(=O)CCN4CCCC4)cc3nc3cc(NC(=O)CCN4CCCC4)ccc23)cc1
NO

Regarding CCCS(=O)(=O)Nc1ccc(F)c(C(=O)c2c[nH]c3ncc(-c4ccc(Cl)cc4)cc23)c1F + Cc1[nH]c2ccc(F)cc2c1-c1nc2c3cccnc3c3ncccc3c2[nH]1 , kindly confirm whether its viability, T/C is beneath 90%.
NO

Field: below-cutoff. Rule: recorded viability, T/C strictly less than 90%. Subject: O=C(NO)c1cnc(N2CCN(S(=O)(=O)c3ccc4ccccc4c3)CC2)nc1 + Cc1[nH]c2ccc(F)cc2c1-c1nc2c3cccnc3c3ncccc3c2[nH]1
NO

Regarding C#Cc1c(F)ccc2cc(O)cc(-c3ncc4c(N5CC6CCC(C5)N6)nc(OCC56CCCN5CC(F)C6)nc4c3F)c12 (stereo unspecified) + Cc1cnc(CNC(=O)c2c(=O)c3ccc(N4CCCN(C)CC4)nc3n3c2sc2ccccc23)cn1 , kindly confirm whether its viability, T/C is beneath 90%.
YES

# check: viability, T/C < 90% for CC(C)n1c(=O)n(C)c2cnc3cc(F)c(-c4ccc(OCCCN5CCCCC5)nc4)cc3c21 + CN(C)c1ccc(Nc2c3ccc(NC(=O)CCN4CCCC4)cc3nc3cc(NC(=O)CCN4CCCC4)ccc23)cc1
NO

Quick check: does O=c1[nH]cc(F)c(=O)[nH]1 + Cc1cnc(CNC(=O)c2c(=O)c3ccc(N4CCCN(C)CC4)nc3n3c2sc2ccccc23)cn1 have viability, T/C under 90%?
NO

Report whether reported viability, T/C is lower than 90% (strictly) for CC1COCCN1c1cc(-c2ccnn2C)c2ccnc(-c3ccn[nH]3)c2n1 (stereo unspecified) + Cc1[nH]c2ccc(F)cc2c1-c1nc2c3cccnc3c3ncccc3c2[nH]1
YES

Dear reviewer, please state whether O=C(c1cc(Cc2n[nH]c(=O)c3ccccc23)ccc1F)N1CCN(C(=O)C2CC2)CC1 + Cc1cnc(CNC(=O)c2c(=O)c3ccc(N4CCCN(C)CC4)nc3n3c2sc2ccccc23)cn1 has viability, T/C strictly beneath 90%.
YES
